Test system: LOLRI
Experiment: Post-emergence herbicidal effect, greenhouse pot test
Format: in vivo, Lolium rigidum
Conditions: Lolium rigidum, 504 h, 80 g/ha, read-out: Post-emergence effect against LOLRI in %
property: pest or weed control at 80 g/ha (%)
Could you give me the number in %? Just the number is fine.

{"columns": ["molecule", "unit.of.measure", "pest or weed control at 80 g/ha"],
 "data": [
  ["COC(=O)C(OC)Oc1nn(-c2ncccc2F)c(-c2ccc(F)nc2)c1C1CC1 (stereo not drawn) [Example I-40]", "%", 90]
]}

# return recorded pest or weed control at 80 g/ha for entry COC(=O)C(OC)Oc1nn(-c2cc(F)ccc2F)c(-c2cncc(F)c2)c1C1CC1 (stereo not drawn) [Example I-111]
90

# return recorded pest or weed control at 80 g/ha for entry COC(Oc1nn(-c2ncccc2F)c(-c2cncc(F)c2)c1C1CC1)C(=O)O (stereo not drawn) [Example I-84]
90

# return recorded pest or weed control at 80 g/ha for entry COC(=O)C(OC)Oc1nn(-c2ccccc2)c(-c2ccc(F)nc2)c1Cl (stereo not drawn) [Example I-26]
90

# return recorded pest or weed control at 80 g/ha for entry COC(Oc1nn(-c2cc(F)ccc2F)c(-c2cncc(F)c2)c1C1CC1)C(=O)O (stereo not drawn) [Example I-109]
90

# return recorded pest or weed control at 80 g/ha for entry CCOC(=O)C(OC)Oc1nn(-c2ncccc2F)c(-c2ccc(F)nc2)c1C1CC1 (stereo not drawn) [Example I-58]
90

# return recorded pest or weed control at 80 g/ha for entry COC(=O)C(OC)Oc1nn(-c2ncccc2F)c(-c2cncc(F)c2)c1Br (stereo not drawn) [Example I-91]
90

# return recorded pest or weed control at 80 g/ha for entry CCOC(=O)C(OC)Oc1nn(-c2ncccc2F)c(-c2ccc(F)nc2)c1Br (stereo not drawn) [Example I-14]
90

# return recorded pest or weed control at 80 g/ha for entry COC(=O)C(OC)Oc1nn(-c2ccccc2F)c(-c2ccc(F)nc2)c1Br (racemic) [Example I-04]
80

# return recorded pest or weed control at 80 g/ha for entry CCOC(=O)C(OC)Oc1nn(-c2cc(F)ccc2F)c(-c2cncc(F)c2)c1C1CC1 (stereo not drawn) [Example I-37]
90

# return recorded pest or weed control at 80 g/ha for entry COC(=O)C(OC)Oc1nn(-c2ncccc2F)c(-c2ccc(F)cc2F)c1Br (stereo not drawn) [Example I-07]
80

# return recorded pest or weed control at 80 g/ha for entry COC(=O)C(OC)Oc1nn(-c2ncccc2F)c(-c2cncc(F)c2)c1C1CC1 (stereo not drawn) [Example I-73]
90

# return recorded pest or weed control at 80 g/ha for entry CCOC(=O)C(OC)Oc1nn(-c2ncccc2F)c(-c2cncc(F)c2)c1C1CC1 (stereo not drawn) [Example I-113]
90

# return recorded pest or weed control at 80 g/ha for entry CCOC(=O)C(OC)Oc1nn(-c2ncccc2F)c(-c2ccc(F)nc2)c1Cl (stereo not drawn) [Example I-48]
90

# return recorded pest or weed control at 80 g/ha for entry COC(=O)C(OC)Oc1nn(-c2ncccc2F)c(-c2ccc(F)nc2)c1Br (stereo not drawn) [Example I-05]
80
